- target system: human SSAO (Homo sapiens)
- Sequence (Q16853 29-763 limits assumed): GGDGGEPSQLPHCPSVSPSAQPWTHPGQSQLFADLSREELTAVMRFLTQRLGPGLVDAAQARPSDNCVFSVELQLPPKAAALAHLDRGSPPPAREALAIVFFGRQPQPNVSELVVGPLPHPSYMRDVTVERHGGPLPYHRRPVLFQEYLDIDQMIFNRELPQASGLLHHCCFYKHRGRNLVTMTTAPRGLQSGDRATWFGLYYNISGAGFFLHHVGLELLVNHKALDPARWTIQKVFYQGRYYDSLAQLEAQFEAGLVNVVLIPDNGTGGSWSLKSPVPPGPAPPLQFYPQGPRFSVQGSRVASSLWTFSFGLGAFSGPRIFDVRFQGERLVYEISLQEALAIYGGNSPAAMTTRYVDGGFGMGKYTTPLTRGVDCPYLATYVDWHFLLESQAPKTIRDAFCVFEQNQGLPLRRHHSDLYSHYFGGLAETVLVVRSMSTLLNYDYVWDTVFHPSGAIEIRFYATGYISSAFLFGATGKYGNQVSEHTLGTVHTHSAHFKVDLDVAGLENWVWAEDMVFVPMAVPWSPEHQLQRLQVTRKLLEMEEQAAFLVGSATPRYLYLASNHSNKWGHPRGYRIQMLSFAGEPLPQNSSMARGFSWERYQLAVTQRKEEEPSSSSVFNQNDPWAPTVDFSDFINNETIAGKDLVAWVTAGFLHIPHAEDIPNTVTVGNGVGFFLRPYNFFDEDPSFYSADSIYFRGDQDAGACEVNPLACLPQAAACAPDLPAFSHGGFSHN
- protocol: SSAO enzyme inhibition assay (benzylamine substrate; HRP-coupled hydrogen peroxide detection or 14C-benzaldehyde detection)
- condition label: purified recombinantly expressed human SSAO, benzylamine as substrate, r.t.; read-out: SSAO inhibitory activity IC50
So I've got a bunch of compounds here, and I need their IC50 values.

Batch: IC50 for all items listed.
1. Clc1ccc(-n2cc(CN3CCNCC3)c3ccncc32)cc1 [Compound 26]
2. CC(C)(C)OC(=O)N1CCC(c2cn(-c3ccc(Cl)cc3)c3cnccc23)CC1 [Compound 9]
3. Clc1ccc(-n2cc(C3CCN(Cc4cc[nH]n4)CC3)c3ccncc32)cc1 [Compound 19]
4. Cc1ccc(-n2nc(N3CCOCC3)c3ccncc32)cc1 [Compound 57]
5. Fc1ccc(-n2nc(N3CCOCC3)c3ccncc32)cc1 [Compound 55]
6. CC(C)(C)OC(=O)NC1CCC(c2cn(-c3ccc(Cl)cc3)c3cnccc23)CC1 (stereo not shown) [Compound 11]
7. OCCC1CCN(Cc2cn(-c3ccc(Cl)cc3)c3cnccc23)CC1 [Compound 27]
8. Clc1ccc(-c2cn(C3CCOC3)c3ccncc23)cc1 (stereo not shown) [Compound 3]

1: 0.5 to 2.5 µM; 2: 0.5 to 2.5 µM; 3: 0.1 to 0.5 µM; 4: < 0.1 µM; 5: 0.1 to 0.5 µM; 6: 0.1 to 0.5 µM; 7: 0.5 to 2.5 µM; 8: 0.1 to 0.5 µM
